- Subject of test: pooled human IgG
Would you mind telling me the reported Enzyme Activity Endpoint Assay: IgG of each entry?
Numbers only, in ng/µL.

| Protein | Outcome measure | Quantitative readout |
| --- | --- | --- |
| PRT-30 (protein) MANQEIRYSEVTPYHVTSVWTKGVTPPANFTQGEDVFHAPYVANQGWYDITKTFNGKDDLLCGAATAGNMLHWWFDQNKDQIKRYLEEHPEKQKINFNGEQMFDVKEAIDTKNHQLDSKLFEYFKEKAFPYLSTKHLGVFPDHVLDMFINGYRLSLTNHGPTPVKEGSKDPRGGIFDAVFTRGDQSKLLTSRHDFKEKTLKEISDLIKKELTEGKALGLSHTYANVRINHVINLWGADFDSEGNLKAIYVTDSDSNASIGMKKYFVGVNSAGKVAISAKEIKEDNIGAQVLGLFTLSTGQDSWNQTN | Enzyme Activity Endpoint Assay: IgG | 21 |

Continue with the protein presented below.
# Enzyme Activity Endpoint Assay: IgG (protein: PRT-39 (protein) MANQEIRYSEVTPYHVTSVWTKGVTPPANFTQGEDVFHAPYVANQGWYDITKTFNGKDDLLCGAATAGNMLHWWFDQNKDQIKRYLEEHPEKQKINFNGEQMFDVKEAIDTKNHQLDSKLFEYFKEKAFPYLSTKHLGVFPDHVIDMFINGYRLSLTNHGPTPVKEGSKDPRGGIFDAVFTRGDQSKLLTSRHDFKEKNLKEISDLIKQELTEGKALGLSHTYANVRINHVINLWGADFDSNGNLKAIYVTDSDSNASIGMKKYFVGVNSAGKVAISAKEIKEDNIGAQVLGLFTLSTGQDSWNQTN ) is 9

These data points were gathered from patent US20250027068.
